- Tested on: NCI-H650
- protocol.summary: relative viability (nuclei count vs DMSO), 5 days (fraction); higher = more cells survive
- protocol.conditions: first compound 6.325 µM
Quick rule for you: relative viability under 0.5 gets TRUE, anything else gets FALSE.

Task: Input Cc1csc(=NC2CCCCC2)n1/N=C/c1ccc(O)c(O)c1O [MIM1] + Cc1nc(Nc2ncc(C(=O)Nc3c(C)cccc3Cl)s2)cc(N2CCN(CCO)CC2)n1 [Dasatinib] (partner 0.075 µM) ; condition: relative viability strictly below 0.5. Does it hold?
Result: TRUE

Task: Identify whether the compound Cc1csc(=NC2CCCCC2)n1/N=C/c1ccc(O)c(O)c1O [MIM1] + COc1cccc2cc(-c3nc([C@H]4CC[C@H](C(=O)O)CC4)n4ncnc(N)c34)[nH]c12 [OSI-027] (partner 0.5 µM) records relative viability below 0.5.
Result: FALSE

Task: Given the entry Cc1csc(=NC2CCCCC2)n1/N=C/c1ccc(O)c(O)c1O [MIM1] + COc1cc2c(Oc3ccc(NC(=O)C4(C(=O)Nc5ccc(F)cc5)CC4)cc3F)ccnc2cc1OCCCN1CCOCC1 [Foretinib] (partner 0.25 µM) , would its reported relative viability be below 0.5?
Result: FALSE

Task: Please state whether relative viability is below 0.5 for Cc1csc(=NC2CCCCC2)n1/N=C/c1ccc(O)c(O)c1O [MIM1] + CC(=O)Nc1cccc(-n2c(=O)n(C3CC3)c(=O)c3c(Nc4ccc(I)cc4F)n(C)c(=O)c(C)c32)c1 [Trametinib] (partner 0.02 µM)
Result: FALSE

Task: relative viability under 0.5? Item: Cc1csc(=NC2CCCCC2)n1/N=C/c1ccc(O)c(O)c1O [MIM1] + CC(C)C[C@H](NC(=O)[C@H](Cc1ccccc1)NC(=O)c1cnccn1)B(O)O [Bortezomib] (partner 0.002 µM)
Result: FALSE

* * *

- Tested on: IA-LM
- protocol.summary: relative viability (nuclei count vs DMSO), 5 days (fraction); higher = more cells survive
- protocol.conditions: first compound 0.006325 µM
measure: relative viability

Here's what some known entries look like.
| compound | study.system | endpoint.value |
| --- | --- | --- |
| CCNC(=O)c1noc(-c2cc(C(C)C)c(O)cc2O)c1-c1ccc(CN2CCOCC2)cc1 [Luminespib] + COc1cc2c(Oc3ccc(NC(=O)C4(C(=O)Nc5ccc(F)cc5)CC4)cc3F)ccnc2cc1OCCCN1CCOCC1 [Foretinib] (partner 0.25 µM) | IA-LM | 1.13 |
| CCNC(=O)c1noc(-c2cc(C(C)C)c(O)cc2O)c1-c1ccc(CN2CCOCC2)cc1 [Luminespib] + C[C@@H](Oc1cc(-c2cnn(C3CCNCC3)c2)cnc1N)c1c(Cl)ccc(F)c1Cl [Crizotinib] (partner 1 µM) | IA-LM | 0.848 |
| CCNC(=O)c1noc(-c2cc(C(C)C)c(O)cc2O)c1-c1ccc(CN2CCOCC2)cc1 [Luminespib] + CS(=O)(=O)N1CCN(Cc2cc3nc(-c4cccc5[nH]ncc45)nc(N4CCOCC4)c3s2)CC1 [Pictilisib] (partner 1 µM) | IA-LM | 0.369 |

// switching to the query compound
Task: Report measured relative viability; entry is CCNC(=O)c1noc(-c2cc(C(C)C)c(O)cc2O)c1-c1ccc(CN2CCOCC2)cc1 [Luminespib] + C[C@]1(O)C[C@@H](c2nc(-c3ccc4ccc(-c5ccccc5)nc4c3)c3c(N)nccn32)C1 [Linsitinib] (partner 1 µM)
Result: 0.424

Cited source for all entries: the supplement of paper PMC10307832
